- assay_conditions: 308.15 K; 101.33 kPa; Liquid
assay_metric: speed of sound (m/s)

C=CN1CCCC1=O [N-vinylpyrrolidone]	1499.4
O=C1CCCN1 [2-pyrrolidinone]	1603.1
CN1CCCC1=O [N-methylpyrrolidone]	1518.4
O [water]	1519

---

- assay_conditions: 338.15 K; 101.33 kPa; Liquid
assay_metric: speed of sound (m/s)

CN1CCCC1=O	1407.3
C=CN1CCCC1=O	1403.3
O	1551
O=C1CCCN1	1520.1

---

- assay_conditions: 298.15 K; 101.33 kPa; Liquid
assay_metric: speed of sound (m/s)

CN1CCCC1=O	1545.1
O=C1CCCN1	1633.2
C=CN1CCCC1=O	1530.1
O	1498

---

- assay_conditions: 328.15 K; 101.33 kPa; Liquid
assay_metric: speed of sound (m/s)

O=C1CCCN1 [2-pyrrolidinone]	1549.7
O [water]	1545
CN1CCCC1=O [N-methylpyrrolidone]	1448.7
C=CN1CCCC1=O [N-vinylpyrrolidone]	1430.2
